B1: ZNF24 (parent)
chain: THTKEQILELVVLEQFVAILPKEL

Variants of: B1
Assay: protein stability index of a GFP-peptide fusion (GPS, HEK-293T) (PSI 1-6); higher = more stable;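 also: lentivirally expressed fusions sorted by FACS into six bins by GFP to DsRed ratio, PSI derived from sequencing read proportions per bin multiplied by bin number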
Settings: c terminus: a fixed tail appended
assay readout: protein stability index
Lab note: record the figure alone, no unit after it.

[
  {
    "sequence change": "E14I",
    "protein stability index": 3.12
  }
]

Task: Identify the reported protein stability index for the following entry. L10V
Output: 2.5

Task: Identify the reported protein stability index for the following entry. F16D
Output: 2.33

Task: Identify the reported protein stability index for the following entry. K4S
Output: 2.19
